Tested on: PC-3 prostate
Assay: NCI-60 one-dose screen, 48 h (100 = growth as untreated, 0 = no growth, -100 = all killed)
Details: 10 µM unless noted
About 83,000 compounds went through this panel and 20% of them were active in at least one assay; those are over-represented in the sample as a whole.
Attribute: growth
The reply should contain only the number, in %.

N#Cc1c(C(F)(F)F)cc(Nc2ccc3nc(NCCN4CCCC4)oc3c2)n2c1nc1ccccc12: 52.1
CC(C)[C@@H](C)/C=C/[C@@H](C)[C@H]1CCC2=C3C=CC4=CC(=O)CC[C@]4(C)[C@H]3CC[C@@]21C: 62.8
C=C1C(=O)O[C@H]2[C@H]1CC/C(CNC(=O)c1cc3cc(OC)ccc3[nH]1)=C\CC[C@@]1(C)O[C@@H]21: -52.5

Would you mind telling me what growth value was observed for CC1=CC2c3oc(-c4ccccc4)c(C(=O)c4ccccc4)c3CNC2C=C1 (centres undefined) ? 94

Hey, just so you know, these numbers are from PubChem BioAssay (NCI).
